Read-out: Collagen III, COL3A1 (gene 1281)
method: BSK_MyoF_CollagenIII: BioMAP Diversity Plus: MyoF Assay for Collagen III Biomarker Activity (AID 2284239)
conditions.used: primary human lung fibroblasts
Active and inactive are the calls of the source. Rule for the calls: active = hit-call score of the fitted dose curve at least 0.9, where 1 is the maximum; inactive = score below 0.9.
Thanks in advance; please answer with one of these: 1 (yes) (active), 0 (no) (inactive)

# fetch the recorded call for Nc1ccc(N)cc1 here 0 (no)

# fetch the recorded call for CCN(CC)C(=O)C(Cl)=C(C)OP(=O)(OC)OC here 1 (yes)

# fetch the recorded call for CC(C)=CC1C(C(=O)OCc2cccc(Oc3ccccc3)c2)C1(C)C (configuration not stated) here 0 (no)

# fetch the recorded call for Oc1c(Br)cc(Br)cc1Br here 0 (no)

# fetch the recorded call for CC(C=O)Cc1ccc2c(c1)OCO2 (configuration not stated) here 0 (no)

# fetch the recorded call for Oc1ccc(Cc2ccc(O)cc2)cc1 here 0 (no)

# fetch the recorded call for C=CC(Cl)CCl (configuration not stated) here 0 (no)

# fetch the recorded call for Cc1cc(Cl)ccc1OC(C)C(=O)O (configuration not stated) here 0 (no)

# fetch the recorded call for Oc1cccc(-c2ccccc2)c1 here 1 (yes)

# fetch the recorded call for CC(C)N(C(=O)CCl)c1ccccc1 here 1 (yes)

# fetch the recorded call for Cc1ccccc1OP(=O)(Oc1ccccc1C)Oc1ccccc1C here 1 (yes)

# fetch the recorded call for C#CCOC(=O)/C=C(C)/C=C/CC(C)CCCC(C)C (configuration not stated) here 0 (no)
